pKd: −log10 of the molar value.
Here, compounds appear alongside pKd reported for Receptor-interacting serine/threonine-protein kinase 1 (Homo sapiens, UniProt Q13546) in the literature.
endpoint label: pKd

- CCS(=O)(=O)Nc1ccc(-c2n[nH]c(Nc3cncc(OC)n3)c2C(N)=O)cc1: < 4.52
- C[C@H](Oc1cc(-c2nn(C)c3c(-c4cnn([C@@H]5CCN(C)C(C)(C)C5)c4)cnc(N)c23)ccc1NS(=O)(=O)C(F)F)c1ccc(F)cc1 (single isomer, unassigned): < 5.00
- NC(=O)c1c(-c2ccc(NS(=O)(=O)CC(F)(F)F)c(OC3(c4ccccc4)CC3)c2)n[nH]c1Nc1cnccn1: < 4.52
- NC(=O)c1c(-c2ccc(NS(=O)(=O)CC(F)(F)F)c(OC(c3ccc(F)cc3)C3CCC3)c2)n[nH]c1Nc1cnccn1 (centres unmarked): < 4.52
- CCS(=O)(=O)Nc1ccc(-c2n[nH]c(Nc3ccn(C)n3)c2C(N)=O)cc1: < 4.52
- C[C@H](Oc1cc(-c2n[nH]c(Nc3cc(C4(C(F)(F)F)CC4)on3)c2C(N)=O)ccc1NS(=O)(=O)C(F)F)c1ccc(F)cc1: < 4.52
- CCS(=O)(=O)Nc1ccc(-c2n[nH]c(Nc3ccc(OC)nc3)c2C(N)=O)cc1OCc1ccc(F)cc1: < 4.52
- CCS(=O)(=O)Nc1ccc(-c2n[nH]c(Nc3cccc(OCCOC)n3)c2C(N)=O)cc1: < 4.52
- C[C@H](Oc1cc(-c2nn(C)c3c(-c4cnn(C5CCOCC5)c4)cnc(N)c23)ccc1NS(=O)(=O)C(F)F)c1cccc(Cl)c1: < 5.00
- CCS(=O)(=O)Nc1ccc(-c2n[nH]c(Nc3cnccn3)c2C(N)=O)cc1OCc1ccc(F)c(F)c1: < 4.52
- Cc1cnc(Nc2[nH]nc(-c3ccc(NS(=O)(=O)CCC(F)(F)F)c(OCc4ccc(F)cc4)c3)c2C(N)=O)cn1: < 4.52
- Cc1cc(Nc2c(C(N)=O)c(-c3ccc(NS(=O)(=O)C(F)F)c(O[C@@H](C)c4ccc(F)cc4)c3)nn2C)no1: < 4.52
- C[C@H](Oc1cc(-c2nn(C)c3c(-c4cnn(C5CN(C)C5)c4)cnc(N)c23)ccc1NS(=O)(=O)C(F)F)c1ccc(F)cc1: < 5.00
- C[C@H](Oc1cc(-c2nn(C)c3c(-c4cnn(C5CCOCC5)c4)cnc(N)c23)ccc1NS(=O)(=O)C(F)F)c1ccc(F)cc1: < 5.00
- NC(=O)c1c(-c2ccc(NS(=O)(=O)CC(F)(F)F)c(OC3(c4ccc(F)cc4)CC3)c2)n[nH]c1Nc1cnccn1: < 4.52
- CC(C)n1nc(-c2ccc(NS(=O)(=O)C(F)F)c(O[C@@H](C)c3ccc(F)cc3)c2)c2c(N)ncc(-c3ccncc3)c21: < 5.00
- NC(=O)c1c(-c2ccc(NS(=O)(=O)C(F)F)c(OCc3ncco3)c2)n[nH]c1Nc1cnccn1: < 4.52
- CC#Cc1cnc(N)c2c(-c3ccc(NS(=O)(=O)C(F)F)c(O[C@@H](C)c4ccc(F)cc4)c3)nn(C)c12: < 5.00
- C[C@H](Oc1cc(-c2nn(C)c3c(-c4cnn(C5CCN(C)C(C(F)(F)F)C5)c4)cnc(N)c23)ccc1NS(=O)(=O)C(F)F)c1ccc(F)cc1 (some centres unmarked): < 5.00
- CCS(=O)(=O)Nc1ccc(-c2n[nH]c(Nc3cnccn3)c2C(N)=O)cc1OCCc1cccc(F)c1: < 4.52
- CC(C)n1nc(-c2ccc(NS(=O)(=O)C(F)F)c(O[C@@H](C)c3ccc(F)cc3)c2)c2c(N)ncc(-c3cnn(C)c3)c21: < 5.00
- C[C@H](Oc1cc(-c2nn(C)c3c(-c4cnn(C5CCOCC5)c4)cnc(N)c23)ccc1NS(C)(=O)=O)c1ccc(F)cc1: < 5.00
- CCS(=O)(=O)Nc1ccc(-c2n[nH]c(Nc3cnccn3)c2C(N)=O)cc1O[C@@H](C)c1ccccn1: < 4.52
- C[C@H](Oc1cc(-c2n[nH]c(Nc3cnccn3)c2C(N)=O)ccc1NS(=O)(=O)C(F)F)c1ccc(Cl)cc1: < 4.52
- C[C@H](Oc1cc(-c2nn(C)c3c(-c4cnn(C5C[C@@H]6CN(C)C[C@@H]6C5)c4)cnc(N)c23)ccc1NS(=O)(=O)C(F)F)c1ccc(F)cc1 (some centres unmarked): < 5.00
- Cn1nc(-c2ccc(NS(=O)(=O)C(F)F)c(OCc3ncco3)c2)c2c(N)ncc(-c3cnn(C4CCOCC4)c3)c21: < 5.00

###

Here, compounds appear alongside pKd reported for Receptor-interacting serine/threonine-protein kinase 1 (Homo sapiens, UniProt Q13546) in the literature.
pKd: −log10 of the molar value.
endpoint label: pKd

• NC(=O)c1c(-c2ccc(NS(=O)(=O)C(F)F)c(OCc3ccc(F)cc3)c2)n[nH]c1Nc1cnccn1 = < 4.52
• C[C@H](Oc1cc(-c2n[nH]c(Nc3cc4n(n3)CCOC4)c2C(N)=O)ccc1NS(=O)(=O)C(F)F)c1ccc(F)cc1 = < 4.52
• CCS(=O)(=O)Nc1ccc(-c2n[nH]c(Nc3cnc(C(F)(F)F)cn3)c2C(N)=O)cc1 = < 4.52
• C[C@H](Oc1cc(-c2nn(C)c3c(-c4cnc(N5CCN(C)CC5)nc4)cnc(N)c23)ccc1NS(=O)(=O)C(F)F)c1ccc(F)cc1 = < 5.00
• CCS(=O)(=O)Nc1ccc(-c2n[nH]c(Nc3cnccn3)c2C(N)=O)cc1OCc1ccc(F)cc1C = < 4.52
• C[C@H](Oc1cc(-c2nn(C)c3c(-c4cnn(C5CCN(C)C6(CC6)C5)c4)cnc(N)c23)ccc1NS(=O)(=O)C(F)F)c1ccc(F)cc1 (stereo partly shown) = < 5.00
• C[C@H](Oc1cc(-c2nn(C)c3c(-c4cnn(CCC(F)(F)F)c4)cnc(N)c23)ccc1NS(=O)(=O)C(F)F)c1ccc(F)cc1 = < 5.00

###

Here, compounds appear alongside Kd reported for Receptor-interacting serine/threonine-protein kinase 1 (Homo sapiens, UniProt Q13546) in the literature.
endpoint label: Kd

• CCS(=O)(=O)Nc1ccc(-c2n[nH]c(Nc3cnc4cc(Cl)ccc4n3)c2C(N)=O)cc1 = > 30 µM
• C[C@H](Oc1cc(-c2nn(C)c3c(-c4ccnc(C(F)(F)F)c4)cnc(N)c23)ccc1NS(=O)(=O)C(F)F)c1ccc(F)cc1 = > 10 µM
• Cn1nc(-c2ccc(NS(=O)(=O)C(F)F)c(OCc3cccc(Cl)c3)c2)c2c(N)ncc(-c3cnn(C4CCOCC4)c3)c21 = > 10 µM
• COc1ccc(-c2cnc(N)c3c(-c4ccc(NS(=O)(=O)C(F)F)c(O[C@@H](C)c5ccc(F)cc5)c4)nn(C)c23)cn1 = > 10 µM
• C[C@H](Oc1cc(-c2nn(C)c3c(-c4cnn(C5CN(CC(F)(F)F)C5)c4)cnc(N)c23)ccc1NS(=O)(=O)C(F)F)c1ccc(F)cc1 = > 10 µM
• C[C@H](Oc1cc(-c2nn(C)c3c(-c4cnn(CC5CCCN5)c4)cnc(N)c23)ccc1NS(=O)(=O)C(F)F)c1ccc(F)cc1 (stereo partly drawn) = > 10 µM

###

pKd: −log10 of the molar value.
Here, molecules appear alongside pKd reported for Receptor-interacting serine/threonine-protein kinase 1 (Homo sapiens) in the literature.
endpoint label: pKd

• CCS(=O)(=O)Nc1ccc(-c2n[nH]c(Nc3cnccn3)c2C(N)=O)cc1Oc1cccc(F)c1 = < 4.52
• CCS(=O)(=O)Nc1ccc(-c2n[nH]c(Nc3cnccn3)c2C(N)=O)cc1OCc1cccc(F)c1 = < 4.52
• CCS(=O)(=O)Nc1ccc(-c2n[nH]c(Nc3ccc(C(F)(F)F)cn3)c2C(N)=O)cc1 = < 4.52
• C[C@@H](Oc1cc(NS(=O)(=O)C(F)F)ccc1-c1n[nH]c(Nc2cnccn2)c1C(N)=O)c1ccc(F)cc1 = < 4.52
• CCS(=O)(=O)Nc1ccc(-c2n[nH]c(Nc3ccnc(C(F)(F)F)n3)c2C(N)=O)cc1OCc1ccc(F)cc1 = < 4.52
• Nc1n[nH]c2nccc(-c3ccc(NS(=O)(=O)C(F)F)c(OCc4ccc(F)cc4)c3)c12 = < 5.00
• C[C@H](Oc1cc(-c2nn(C)c3c(-c4ccc5c(c4)n(C)c(=O)n5C)cnc(N)c23)ccc1NS(=O)(=O)C(F)F)c1ccc(F)cc1 = < 5.00

###

pKd: −log10 of the molar value.
Here, compounds appear alongside pKd reported for Receptor-interacting serine/threonine-protein kinase 1 (Homo sapiens) in the literature.
endpoint label: pKd

- CCS(=O)(=O)Nc1ccc(-c2n[nH]c(Nc3ccccn3)c2C(N)=O)cc1OCC(C)C: < 4.52
- NC(=O)c1c(-c2ccc(NS(=O)(=O)CC(F)(F)F)c(OCc3ccccn3)c2)n[nH]c1Nc1cnccn1: < 4.52
- COC[C@@H](Oc1cc(-c2nn(C)c3c(-c4cnn(C5CCOCC5)c4)cnc(N)c23)ccc1NS(=O)(=O)C(F)F)c1ccc(F)cc1: < 5.00
- C[C@H](Oc1cc(-c2nn(C)c3c(-c4cnn(CC(F)(F)F)c4)cnc(N)c23)ccc1NS(=O)(=O)C(F)F)c1ccc(F)cc1: < 5.00
- CCS(=O)(=O)Nc1ccc(-c2n[nH]c(Nc3cccc(C(F)(F)F)n3)c2C(N)=O)cc1: < 4.52
- NC(=O)c1c(-c2ccc(NS(=O)(=O)CC(F)(F)F)c(OCc3ccc(F)c(F)c3)c2)n[nH]c1Nc1cnccn1: < 4.52
- NC(=O)c1c(-c2ccc(NS(=O)(=O)CCC(F)(F)F)cc2)n[nH]c1Nc1cccc(C(F)(F)F)n1: < 4.52
- C[C@H](Oc1cc(-c2nn(C)c3c(-c4ccnc(N(C)C)c4)cnc(N)c23)ccc1NS(=O)(=O)C(F)F)c1ccc(F)cc1: < 5.00
- CCS(=O)(=O)Nc1ccc(-c2n[nH]c(Nc3ccc(C(F)(F)F)nc3)c2C(N)=O)cc1OCc1ccc(F)cc1: < 4.52
- Cc1cc(Nc2[nH]nc(-c3ccc(NS(=O)(=O)C(F)F)c(O[C@@H](C)c4ccc(F)cc4)c3)c2C(N)=O)on1: < 4.52
- C[C@H](Oc1cc(-c2nn(C)c3ccnc(N)c23)ccc1NS(=O)(=O)C(F)F)c1ccc(F)cc1: < 5.00
- Cn1nc(-c2ccc(NS(=O)(=O)C(F)F)cc2OCc2cccc(F)c2)c2c(N)ncc(-c3cnn(C4CCOCC4)c3)c21: < 5.00
- CCS(=O)(=O)Nc1ccc(-c2n[nH]c(Nc3ccnc(OC)n3)c2C(N)=O)cc1: < 4.52
- C[C@H](Oc1cc(-c2nn(C)c3c(C#CC4CCN(C)CC4)cnc(N)c23)ccc1NS(=O)(=O)C(F)F)c1ccc(F)cc1: < 5.00
